Sourced from PubChem BioAssay AID588727

- procedure details: inhibitors of VEEV TC-83 cytopathic effect, confirmation, Vero cells (AID 588727)
- assay setup: VEEV TC-83 cytopathic effect inhibition, at 20 µM; active compounds read high unless noted
The campaign covered roughly 350,000 compounds. About 450 (0.13%) were called active. These entries were drawn from the full list. Results with a measured potency or affinity are listed apart.
The entries below are paired with their reported inhibition.

{"columns": ["compound", "inhibition"],
 "data": [
  ["CCOC(=O)Cc1nnc(Nc2cccc(O)c2)c2ccccc12", "4.42% (inactive)"],
  ["CC(C)NC(=O)N(C)C[C@@H]1Oc2c(NS(=O)(=O)c3ccccc3)cccc2C(=O)N([C@@H](C)CO)C[C@@H]1C", "0.31% (inactive)"],
  ["Cn1cc(C(=O)Nc2ccc(Cl)c(Cl)c2)cn1", "0.63% (inactive)"],
  ["O=c1oc(C2(O)CCCCC2)cc2ccccc12", "0.11% (inactive)"],
  ["COc1ccc(CSC(=N)N)cc1[N+](=O)[O-]", "4.91% (inactive)"],
  ["CNC(=S)N(Cc1ccccc1)Cc1cccnc1", "3.13% (inactive)"],
  ["O=C(Cc1c(Cl)cccc1Cl)OCc1ccccn1", "1.24% (inactive)"],
  ["CCOc1ccc(-c2ccc(SCc3ccccn3)nn2)cc1", "8.3% (inactive)"],
  ["Cn1ncc2c(=O)[nH]cnc21", "0.51% (inactive)"],
  ["Cc1onc(-c2ccccc2)c1C(=O)NC(=S)NNC(=O)c1ccc(O)cc1O", "12.2% (inactive)"],
  ["CN(C)CCNC(=O)c1ccccc1-c1cc2ccccc2c(=O)o1", "0.53% (inactive)"],
  ["CCOC(=O)COc1cc2c3c(c(=O)oc2cc1C)CCCC3", "1.83% (inactive)"],
  ["Nc1ccn([C@@H]2O[C@H](CO)[C@@H](O)[C@H]2O)c(=O)n1", "0.98% (inactive)"],
  ["CC(OC(=O)c1cc(S(=O)(=O)N2CCOCC2)ccc1F)C(=O)NCC1CCCCC1 (stereo not drawn)", "0.1% (inactive)"],
  ["CC(C)Cn1cnc2c(SCc3ccccc3Cl)nc(N)nc21", "9.3% (inactive)"],
  ["OCCn1cnc2c(SCc3ccccc3)ncnc21", "6.32% (inactive)"],
  ["CCOc1ccccc1-c1nc(CN2CCCC2c2nccs2)c(C)o1 (stereo not drawn)", "8.27% (inactive)"],
  ["Cc1ncc(CN2CCCC(C(=O)Nc3ccc(-c4cccc(F)c4)cc3)C2)cn1 (stereo not drawn)", "5.3% (inactive)"],
  ["COc1cccc(-c2ccc(NC(=O)C3CCCN(Cc4cnn(C(C)C)c4)C3)cc2)c1 (stereo not drawn)", "21.3% (inactive)"],
  ["CNC(=O)c1cc(S(=O)(=O)Nc2ccc3c(c2)OCCO3)ccc1C", "0.34% (inactive)"],
  ["CC12CCC(=O)CC1CCC1C2CCC2(C)C1CCC2(O)C(=O)CO (stereo not drawn)", "10.6% (inactive)"],
  ["Cn1cc(CN2CCC(C(=O)Nc3cccc(-c4cccc(F)c4)c3)CC2)cn1", "5.64% (inactive)"]
]}
